Value source: patent US20090203632A1

Assay: Water solubility of 5-FU
Format: physicochemical
Settings: read-out: measured water solubility
Description: A hyaluronic acid formulation that includes 5-FU can be prepared as described. 5-FU is combined with 10 mg hyaluronic acid (1 MDa), 1 ml sterile water. The product is stirred until a uniform gel solution, free of particular polymer or drug is achieved. Alternatively, the HA and water may be combined, stirred and autoclaved to homogenize the solution. After dissolving the polymer, the 5-FU may be added with stirring. […]
measured_parameter: solubility (mg/mL)
Give bare numbers, in mg/mL.

Provide only the value of recorded solubility for O=c1[nH]cc(F)c(=O)[nH]1 [Formula 5-FU, 5-Fluorouracil] 12.9
